- target: Rba. sphaeroides reaction centre (QB site) (Cereibacter sphaeroides)
- assay.name: Inhibition of photocurrent generation in photoelectrochemical cell with reaction centres adhered to a gold electrode
Could you please report measured pIC50 for the items listed next?
Give bare numbers, as −log10 of the molar value.

C/C=C(C)/C=C/C=C/[C@H](OC)[C@@H](C)[C@@H](OC)[C@@H](C)CCc1oc2c(O)c(OC)cc(OC)c2c(=O)c1C; 6.55
CCNc1nc(NC(C)(C)C)nc(SC)n1; 6.68

With those in mind, consider the next compound.
Input line: Request the reported pIC50 associated with CCNc1nc(Cl)nc(NC(C)C)n1
Output line: 5.68
